// provenance: paper PMC6792352

assay: in vitro; details: rat, gh3-tre-luc cells, AC50 (uM) modified / 1000
Structures can show the parent of a compound that is named as a salt.
// reported CC50 at 24 h per item

[
  {
    "MOLECULE": "O=C(O)c1ccccc1S",
    "CC50 at 24 h": "> 50 µM"
  },
  {
    "MOLECULE": "Cc1ccc(NC=O)c(C)c1 [N-(2,4-Dimethylphenyl)formamide]",
    "CC50 at 24 h": "> 90 µM"
  },
  {
    "MOLECULE": "Nc1ccc(S(=O)(=O)O)cc1 [Sodium sulfanilate]",
    "CC50 at 24 h": "> 90 µM"
  },
  {
    "MOLECULE": "CCN(CCC#N)c1ccccc1 [3-[Ethyl(phenyl)amino]propanenitrile]",
    "CC50 at 24 h": "> 90 µM"
  },
  {
    "MOLECULE": "Nc1cccc(S(=O)(=O)O)c1",
    "CC50 at 24 h": "> 90 µM"
  },
  {
    "MOLECULE": "COC(=O)CC(C)CCC=C(C)C (centres unmarked) [Methyl citronellate]",
    "CC50 at 24 h": "> 90 µM"
  },
  {
    "MOLECULE": "CCCCCCCCCCCCCCCC",
    "CC50 at 24 h": "> 90 µM"
  },
  {
    "MOLECULE": "ClC1=C(Cl)C(Cl)(Cl)C(Cl)=C1Cl",
    "CC50 at 24 h": "> 90 µM"
  },
  {
    "MOLECULE": "C[N+]1(CC2COC(c3ccccc3)(c3ccccc3)O2)CCCCC1 (centres unmarked)",
    "CC50 at 24 h": "> 50 µM"
  },
  {
    "MOLECULE": "CCCC(C)=O",
    "CC50 at 24 h": "> 90 µM"
  },
  {
    "MOLECULE": "CCN(CC)CCOCCOC(=O)C(CC)(CC)c1ccccc1 [Oxeladin citrate]",
    "CC50 at 24 h": "27.1 µM"
  }
]
